Tgt: T1, Human IL-18Rα ectodomain (amino acids 19-329), biotinylated (human, UniProt Q13478 19-329, biotin on the AviTag (BirA ligase))
T1 construct: range 19-329; Secreted from insect cells (gp67 signal peptide removed); also called hIL-18Rα; hIL18Rα
T1 sequence: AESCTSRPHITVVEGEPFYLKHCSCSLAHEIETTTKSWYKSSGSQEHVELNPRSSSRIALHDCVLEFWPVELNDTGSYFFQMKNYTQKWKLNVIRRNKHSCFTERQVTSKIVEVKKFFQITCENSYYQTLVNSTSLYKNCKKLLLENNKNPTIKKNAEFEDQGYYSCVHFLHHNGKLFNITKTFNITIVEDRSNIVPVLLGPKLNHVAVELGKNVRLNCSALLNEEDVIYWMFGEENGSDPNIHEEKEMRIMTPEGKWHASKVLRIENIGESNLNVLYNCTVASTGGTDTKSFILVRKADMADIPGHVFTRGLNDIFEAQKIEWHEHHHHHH
Test summary: on-yeast binding isotherm (flow cytometry), drawn summary table, IL18Rα (KD)
pKd: −log10 of the molar value.
Endpoint label: pKd

SEQ ID NO: 90 (second generation human DR-IL-18 variant 6-27) (ligand, Engineered variant; recombinant soluble analyte in SPR and cell assays) YFGKLESKLSVIRNLNDQVLFIDQGNRPLFEDMTDSDCRDNAPRTIFIISKYSDSRARGLAVTISVKCEKISTLSCENKIISFKEMNPPDNIKDTKSDIIFFARSVPGHGRKTQFESSSYEGYFLACEKERDLFKLILKKEDELGDRSIMFTVQNED
7.38
SEQ ID NO: 89 (second generation human DR-IL-18 variant 6-12) (ligand, Engineered variant; recombinant soluble analyte in SPR and cell assays) YFGKLESKLSVIRNLNDQVLFIDQGNRPLFEDMTDSDCRDNAPRTIFIISKYSDSLARGLAVTISVKCEKISTLSCENKIISFKEMNPPDNIKDTKSDIIFFQRDVPGHSRKMQFESSSYEGYFLACEKERDLFKLILKKEDELGDRSIMFTVQNED
7.77
SEQ ID NO: 91 (second generation human DR-IL-18 variant 6-29) (ligand, Engineered variant; recombinant soluble analyte in SPR and cell assays) YFGKLESKLSVIRNLNDQVLFIDQGNRPLFEDMTDSDCRDNAPRTIFIISKYSDSRARGLAVTISVKCEKISTLSCENKIISFKEMNPPDNIKDTKSDIIFFQRNVPGHGRKMQFESSSYEGYFLACEKERDLFKLILKKEDELGDRSIMFTVQNED
7.43
SEQ ID NO: 34 (human DR-IL-18 variant hCS1) (ligand, Engineered variant) YFGKLESKLSVIRNLNDQVLFIDQGNRPLFEDMTDSDCRDNAPRTIFIISTYKDSQPRGKAVTISVKCEKISTLSCENKIISFKEMNPPDNIKDTKSDIIFFQRDVPGHKHKMQFESSSYEGYFLACEKERDLFKLILKKEDELGDRSIMFTVQNED
6.84
SEQ ID NO: 35 (human DR-IL-18 variant hCS2) (ligand, Engineered variant) YFGKLESKLSVIRNLNDQVLFIDQGNRPLFEDMTDSDCRDNAPRTIFIISTYKDKQPRAKAVTISVKCEKISTLSCENKIISFKEMNPPDNIKDTKSDIIFFQRDVPGHKHKMQFESSSYEGYFLACEKERDLFKLILKKEDELGDRSIMFTIQNED
7.04
SEQ ID NO: 87 (second generation human DR-IL-18 variant 6-31) (ligand, Engineered variant; recombinant soluble analyte in SPR and cell assays) YFGKLESKLSVIRNLNDQVLFIDQGNRPLFEDMTDSDCRDNAPRTIFIISKYGDSGARGLAVTISVKCEKISTLSCENKIISFKEMNPPDNIKDTKSDIIFFERDVPGHSGKVQFESSSYEGYFLACEKERDLFKLILKKEDELGDRSIMFTVQNED
7.39
